Cited source for all entries: patent US20120309739A1

Molecular target: AKT1 (Homo sapiens)
Sequence (P31749 whole entry): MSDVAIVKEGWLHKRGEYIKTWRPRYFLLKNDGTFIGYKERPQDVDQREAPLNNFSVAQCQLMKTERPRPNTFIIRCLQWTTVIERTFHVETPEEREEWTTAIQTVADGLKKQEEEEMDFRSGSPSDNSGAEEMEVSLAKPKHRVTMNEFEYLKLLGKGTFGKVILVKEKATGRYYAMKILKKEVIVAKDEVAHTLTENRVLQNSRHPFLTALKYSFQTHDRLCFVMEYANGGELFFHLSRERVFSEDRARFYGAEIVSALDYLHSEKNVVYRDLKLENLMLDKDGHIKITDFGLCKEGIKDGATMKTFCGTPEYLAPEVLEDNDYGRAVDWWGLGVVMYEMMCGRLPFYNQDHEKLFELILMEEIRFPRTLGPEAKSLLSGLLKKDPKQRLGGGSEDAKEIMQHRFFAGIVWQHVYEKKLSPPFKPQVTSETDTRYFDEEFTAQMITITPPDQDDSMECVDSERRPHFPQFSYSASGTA
Experiment: AKT Kinase Assay (IMAP fluorescent polarisation) vs AKT1
Conditions: activated AKT1, FAM Crosstide substrate
Counter-ions that a name gives are not always drawn.
# IC50 annotations

Please report the recorded IC50 for NC1(c2ccc(-c3oc4nc(NCCO)nc(NCCO)c4c3-c3ccccc3)cc2)CCC1 .
0.1 to 1 µM

Try the compound NC1(c2ccc(-c3oc4c(=O)n(CCCO)ccc4c3-c3ccccc3)cc2)CCC1
1 to 10 µM

Repeat for the following compound: Cn1c(=O)[nH]c2oc(-c3ccc(C4(N)CCC4)cc3)c(-c3ccccc3)c2c1=O [Example 124, hydrochloride]
0.1 to 1 µM

Cool, now CC(C)n1cnc2oc(-c3ccc(C4(N)CCC4)cc3)c(-c3ccccc3)c2c1=O [Example 107, HCl]
1 to 10 µM

Now consider COc1nc(N2CCC(O)CC2)nc2oc(-c3ccc(C4(N)CCC4)cc3)c(-c3ccccc3)c12 .
0.1 to 1 µM

Please do the same for NC(=O)c1cccc2c(-c3ccccc3)c(-c3ccc(C4(N)CCC4)cc3)oc12 as well.
1 to 10 µM

Lookup Cc1cnc2oc(-c3ccc(C4(N)CCC4)cc3)c(-c3ccccc3)c2n1
0.1 to 1 µM

And what about the compound NC1(c2ccc(-c3oc4ncccc4c3-c3ccccc3)cc2)CCC1 ?
> 10 µM

One more compound: NC1(c2ccc(-c3oc4nc(NCCO)n(CC(F)(F)F)c(=O)c4c3-c3ccccc3)cc2)CCC1
0.1 to 1 µM

How about this compound: COC(=O)c1cn(C)c(=O)c2c(-c3ccccc3)c(-c3ccc(C4(N)CCC4)cc3)oc12
≤ 0.1 µM

Next compound: NC1(c2ccc(-c3oc4ncc(-c5ccccc5)nc4c3-c3ccccc3)cc2)CCC1 [Example 139, HCl]
1 to 10 µM

Query CSc1ncc2c(-c3ccccc3)c(-c3ccc(C4(N)CCC4)cc3)oc2n1 next
1 to 10 µM
